Tested on: Escherichia coli
outcomeMeasure: MIC

# input molecule: CC(=O)NC[C@H]1CN(c2ccc(C(=O)c3ccc([N+](=O)[O-])cc3)cc2)C(=O)O1 ; wanted: its MIC
> 128 µg/mL

Thanks! And CSc1ccc(C(=O)c2ccc(N3C[C@H](CNC(C)=O)OC3=O)cc2)cc1 ?
> 128 µg/mL

Another molecule to check: COc1ccc(C(=O)c2ccc(N3C[C@H](CNC(C)=O)OC3=O)cc2)cc1
> 128 µg/mL

Could you do the same for CC(=O)NC[C@H]1CN(c2ccc(C(=O)c3ccc(S(C)(=O)=O)cc3)cc2)C(=O)O1 , please?
> 128 µg/mL

Next up: CC(=O)NC[C@H]1CN(c2ccc(C(O)c3ccccc3)cc2)C(=O)O1 (stereo partly drawn)
> 128 µg/mL

CC(=O)NC[C@H]1CN(c2ccc(C(=O)c3ccc(F)cc3)cc2)C(=O)O1 , same question.
> 128 µg/mL

// same read-out, input: CC(=O)NC[C@H]1CN(c2ccc(C(=O)c3cccnc3)cc2)C(=O)O1
> 128 µg/mL

# iterate: CC(=O)NC[C@H]1CN(c2ccc(C(=O)c3ccc([S+](C)[O-])cc3)cc2)C(=O)O1 (stereo partly drawn)
> 128 µg/mL

Proceed to COc1cc(Cl)ccc1C(=O)c1ccc(N2C[C@H](CNC(C)=O)OC2=O)cc1
> 128 µg/mL

Also CC(=O)NC[C@H]1CN(c2ccc(C(=O)c3cccc(F)c3)cc2)C(=O)O1 ?
> 128 µg/mL

Also CC(=O)NC[C@H]1CN(c2ccc(C(=O)c3ccc(F)cc3F)cc2)C(=O)O1 , if possible.
> 128 µg/mL

Same read-out for CC(=O)NC[C@H]1CN(c2ccc(C(=O)c3ccccc3)cc2)C(=O)O1 ?
> 128 µg/mL
